Test system: Radical scavenging activity
MEASUREMENT DESCRIPTION: Antioxidant activity assessed as DPPH radical scavenging activity after 20 mins
Assay type: functional
PROPERTY LABEL: IC50 (µg/mL)
Numbers only, in µg/mL.

{"columns": ["COMPOUND", "IC50 [µg/mL]"],
 "data": [
  ["O=C(O)c1cc(O)c(O)c(O)c1", 26.9],
  ["COc1cc(C(=O)O)cc(OC)c1O", 155.6],
  ["O=c1c(O)c(-c2ccc(O)c(O)c2)oc2cc(O)cc(O)c12", 56.8],
  ["O=C(O)/C=C/c1ccc(O)cc1", 112.01],
  ["O=C(O)/C=C/c1ccccc1", 96.7]
]}

Record IC50 for all entries; do not skip any.
1. O=C(O)c1ccc(O)c(O)c1
2. COc1cc(/C=C/C(=O)O)ccc1O [FERULATE]
3. O=C(O)c1ccc(O)cc1
4. COc1cc(C(=O)O)ccc1O

1. 77.63
2. 189.1
3. 183.7
4. 176.5

* * *

TEST SYSTEM: Aldo-keto reductase family 1 member B1 (Homo sapiens, UniProt P15121)
MEASUREMENT DESCRIPTION: Inhibition of cataracted human eye lens aldose reductase
Hi there, I'd appreciate the recorded pIC50 for every entry that follows.
Give bare numbers, as −log10 of the molar value.

{"columns": ["COMPOUND", "VALUE OBSERVED"],
 "data": [
  ["O=C(O)c1ccc(O)c(O)c1 [PROTOCATECHUIC ACID]", 3.56]
]}

I am curious: what pIC50 value has been reported for O=C(O)c1cc(O)c(O)c(O)c1 [GALLIC ACID] ?
3.24
